Molecular target: biotinylated CD59 (Homo sapiens)
Construct: Recombinant soluble human CD59 with an additional C-terminal cysteine residue
Sequence (P13987 26-102 limits assumed): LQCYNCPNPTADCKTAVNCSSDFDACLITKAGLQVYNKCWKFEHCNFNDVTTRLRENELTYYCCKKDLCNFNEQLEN
Assay: mRNA-display cyclic peptide screen against CD59-biotin, NGS abundance after 6th selection round
Details: counts normalised by total counts of sample Seq I; percentage of the pool, sheet R6
Tag: rule met if measured Percentage Seq I is not below 0.03%, rule not met if it is.

Before answering, review these 5 worked examples.
sequence_input: RAWGNRYIAYY
assigned_class: rule not met

sequence_input: SWTWGDRSSVRG
assigned_class: rule not met

sequence_input: AVWGSAHDRWE
assigned_class: rule met

sequence_input: QPFWGCRTVAYS
assigned_class: rule met

sequence_input: ARGGPTWSRG
assigned_class: rule met

Dear colleague, could you confirm whether WRDRLDQCVL has Percentage Seq I at or above 0.03%?
rule not met

What do you have for FVRGDPYSVLG ?
rule met

What do you have for CFQNRVSGSGAL ?
rule met

What do you have for FVRGDLYSVRG ?
rule not met

What do you have for CFTQRIASGSK ?
rule not met

What do you have for RGGTRDTIWG ?
rule met

What do you have for HVSGNRSFTRG ?
rule not met

What do you have for ISWGNGSLAFY ?
rule met

What do you have for SSFREYNHLPCT ?
rule met
